All values here come from ChEMBL document CHEMBL4118209.

- target: UniProt:Q13822
- assay_procedure: Inhibition of ATX in human serum assessed as reduction in LPA 18:1 levels after 3 hrs by LC-MS/MS analysis
experimental_endpoint: pIC50
Bear in mind: pIC50 is minus log10 of a mol/L concentration; give just that figure.

The reported pIC50 of the compound `O=C(CCCc1c[nH]nn1)NC1CCN(C(=O)OCc2cc(Cl)cc(Cl)c2)CC1` was 8.05

###

- assay_procedure: Thermodynamic solubility in FeSSIF
- Format: physicochemical
- condition_info: read-out: Therm_solubility
experimental_endpoint: solubility thermodynamic (µg/mL)
Your answer is read as µg/mL, so omit the unit and give the number.

The reported solubility thermodynamic of the compound `O=C(CCCc1c[nH]nn1)NC1CCN(C(=O)OCc2cc(Cl)cc(Cl)c2)CC1` was 126

###

- Tested on: Rattus norvegicus
- assay_procedure: In vivo inhibition of ATX in po dosed Sprague-Dawley rat assessed as reduction in LPA 18:1 levels in serum measured over 24 hrs by LCMS analysis
- Type: functional, organism-based
experimental_endpoint: IC50
Express the reported value numerically, then name its unit.

The reported IC50 of the compound `O=C(CCCc1c[nH]nn1)NC1CCN(C(=O)OCc2cc(Cl)cc(Cl)c2)CC1` was 20 nM

###

- assay_procedure: Tmax in Sprague-Dawley rat at 10 mg/kg, po
- Assay type: ADME, organism-based
- condition_info: in vivo
experimental_endpoint: Tmax (h)
Your answer is read as h, so omit the unit and give the number.

The reported Tmax of the compound `CN(CCC1CCN(C(=O)OCc2cc(Cl)cc(Cl)c2)CC1)C(=O)c1c[nH]c(=O)o1` was 2.5

The reported Tmax of the compound `O=C(CCCc1c[nH]nn1)NC1CCN(C(=O)OCc2cc(Cl)cc(Cl)c2)CC1` was 1.3

###

- System: Rattus norvegicus
- assay_procedure: In vivo inhibition of ATX in po dosed Sprague-Dawley rat assessed as reduction in LPA 24:4 levels in serum measured over 24 hrs by LCMS analysis
- Type: functional, organism-based
- condition_info: in the assay text read “LPA 20:4” for “LPA 24:4”
experimental_endpoint: IC50 (nM)
Your answer is read as nM, so omit the unit and give the number.

The reported IC50 of the molecule `O=C(CCCc1c[nH]nn1)NC1CCN(C(=O)OCc2cc(Cl)cc(Cl)c2)CC1` was 20

###

- assay_procedure: Volume of distribution at steady state in Sprague-Dawley rat at 1 mg/kg, iv
- Type: ADME, organism-based
- condition_info: in vivo, read-out: Vdss
experimental_endpoint: Vd (L/kg)
Your answer is read as L/kg, so omit the unit and give the number.

The reported Vd of the compound `CN(CCC1CCN(C(=O)OCc2cc(Cl)cc(Cl)c2)CC1)C(=O)c1c[nH]c(=O)o1` was 2.2

The reported Vd of the compound `O=C(CCCc1c[nH]nn1)NC1CCN(C(=O)OCc2cc(Cl)cc(Cl)c2)CC1` was 2.5
